In this section we review reported melting point values for a set of compounds.

Completed entries (count: 9):
compound: Cc1ccc(C(F)(F)F)cc1[N+](=O)[O-]
measured_result: 31 to 33 °C
--
compound: COc1ccc(-c2ccc(NC(=O)OC(C)(C)C)cc2)cc1
measured_result: 142 to 147 °C
--
compound: Cc1c(Cc2ccccc2)c2c(c(C)c1NC(=O)CC(C)(C)C)CC(C)(C)O2
measured_result: 129 to 130 °C
--
compound: COc1cc(OCc2ccccn2)ccc1/C=C/C(=O)CC(=O)/C=C/c1ccc2cc[nH]c2c1
measured_result: 165 to 168 °C
--
compound: COC(=O)c1ccccc1-c1ccc(C(=C2CC(C)(C)CC(C)(C)C2)c2ccc(O)cc2)cc1
measured_result: 177 to 178 °C
--
compound: Cc1ccc2c(NCc3ccc(NC(=O)c4ccc(C)nc4)cc3)nc(Cl)nc2c1
measured_result: 257 to 259 °C
--
compound: OC(Cc1ccc(C(F)(F)F)cc1)(Cn1ccnc1)Cn1cncn1 (stereo not given)
measured_result: 159 to 161 °C
--
compound: CC(=O)c1ccc2c(c1)oc(=O)n2N1CCC(c2noc3cc(F)ccc23)CC1
measured_result: 152 to 154 °C
--
compound: CCC(=O)c1c(-c2cc(C)c(O)c(C)c2)c(C)n2c1-c1cc(OC)c(OC)cc1CC2
measured_result: 188 to 190 °C

Now for another entry.
Enquiry: Data request, read-out melting point, for COc1ccc(Br)c(C=O)c1
Return: 73 to 74 °C

###

In this section we review reported melting point values for a set of compounds.

Completed entries (count: 2):
compound: Fc1ccc(-c2[nH]nc(-c3ccccc3)c2-c2ccncc2)cc1
measured_result: 265 to 267 °C

compound: CC(NC(=O)C1C(O)N(Cc2ccccc2)C(=O)N1Cc1ccccc1)c1cccs1 (stereo unspecified)
measured_result: 108 to 129 °C

Enquiry: Data request, read-out melting point, for CSC1=Nc2ccccc2Cn2cccc21
Return: 148 to 150 °C

Enquiry: Data request, read-out melting point, for C=Cc1cc(C)cc(C)c1CC(=O)NC1(C(=O)OC)CCN(OC)CC1
Return: 142 to 144 °C

Enquiry: Data request, read-out melting point, for Cn1c(=O)c2c(nc(C=Cc3cccc(N(C(=O)OC(C)(C)C)C(=O)OC(C)(C)C)c3)n2C)n(C)c1=O
Return: 175 to 177 °C

Enquiry: Data request, read-out melting point, for CCOC(=O)c1c(OC)c2cc(Cl)ccc2c(=O)n1C
Return: 122 to 123 °C

Enquiry: Data request, read-out melting point, for COc1ccc2c(N3CCCNCC3)noc2c1
Return: 74 to 75 °C

Enquiry: Data request, read-out melting point, for CCOC(=O)CN1CCN(C(C)(C)C=CC(=O)Nc2cc3c(Nc4ccc(F)c(Cl)c4)ncnc3cc2OCC2CC2)CC1
Return: 165 to 167 °C

Enquiry: Data request, read-out melting point, for Cc1cc(C)c(C(=O)O)s1
Return: 153 to 155 °C

Enquiry: Data request, read-out melting point, for CCOCCOC(=O)C(=O)Nc1nc(-c2ccc(OCC)cc2)cs1
Return: 139 to 140 °C

Enquiry: Data request, read-out melting point, for CNC(=O)Oc1ccccc1
Return: 84 to 85 °C

###

In this section we review reported melting point values for a set of molecules.

molecule: CCc1cn(C(C)C(=O)N(C)C)nc1-c1ccccc1Cl (stereo unspecified)
measured_result: 74 to 76 °C
--
molecule: CC(=O)NC1CCCCC1CCC(=O)O (stereo unspecified)
measured_result: 116 to 121 °C
--
molecule: O=C(Nc1ccccc1O)c1ccc(CS(=O)(=O)c2ccc(O)cc2)cc1
measured_result: 250 °C

Enquiry: Data request, read-out melting point, for CCOC(=O)c1ccc2cc(I)ccc2n1
Return: 119 to 121 °C

Enquiry: Data request, read-out melting point, for Nc1ccc2c(c1)C(=O)c1cc(N)ccc1C2=O
Return: 337 to 338 °C

Enquiry: Data request, read-out melting point, for COc1ccc(-c2c(Cl)c(CN3C(=O)CCC3=O)nc3sc4c(c23)CC(C)(C)C(=O)C4(C)C)cc1
Return: 214 to 216 °C

Enquiry: Data request, read-out melting point, for COc1cc(-c2ccnc(-c3cn(C)c(=O)n3-c3ccc(C(C)(C)C#N)cc3)c2)ccn1
Return: 138 °C

Enquiry: Data request, read-out melting point, for Cc1ccc(-n2nc3c(c2O)-c2ccccc2CC3)nc1
Return: 156 to 157 °C

Enquiry: Data request, read-out melting point, for Cc1cccc2c1N(CC(=O)N1CC3CCC(CC3)C1)C(=O)C(NC(=O)Nc1cccc(CO)c1)N=C2c1ccccc1F (stereo unspecified)
Return: 188 to 202 °C

Enquiry: Data request, read-out melting point, for Cn1c(=O)[nH]c2nc3ccc(OCCCC(=O)N4CCCCC4)cc3cc21
Return: 215 to 217 °C

Enquiry: Data request, read-out melting point, for S=c1sscc1-c1ccccc1
Return: 122 to 124 °C

Enquiry: Data request, read-out melting point, for CN(NC(=O)c1c(F)cccc1Cl)S(C)(=O)=O
Return: 135 to 136 °C

Enquiry: Data request, read-out melting point, for COc1cc(Cc2ccc3nc(N)nc(N)c3c2)cc(OC)c1
Return: 230 to 232 °C

Enquiry: Data request, read-out melting point, for CC(=O)N[C@@H]1CCCC[C@H]1NS(=O)(=O)c1ccc(C)cc1 (relative stereo)
Return: 174 to 176 °C

Enquiry: Data request, read-out melting point, for CCN(CC)CCCN1C(=S)c2cccc3cccc1c23
Return: 128 °C

Enquiry: Data request, read-out melting point, for O=C(O)c1ccc(C=CC(=O)N2CCc3c([nH]c4ccccc34)C2c2ccc3c(c2)CCO3)nc1 (stereo unspecified)
Return: 183 °C

Enquiry: Data request, read-out melting point, for CCC1C(=O)N2CCCC(C(=O)OC(C)(C)C)N2C1=O (stereo unspecified)
Return: 93 to 95 °C

Enquiry: Data request, read-out melting point, for Cc1nn(C)c(C)c1C(=O)NC/C=C\COc1cc(CN2CCCCC2)ccn1
Return: 75 to 77 °C

Enquiry: Data request, read-out melting point, for CCOC(=O)c1c(COC(C)=O)[nH]c(=O)n1C(C)=O
Return: 138 to 139 °C

Enquiry: Data request, read-out melting point, for CCCCCc1ccc2cc(O)ccc2c1
Return: 94 to 95 °C

Enquiry: Data request, read-out melting point, for CCCCc1nn(-c2ccc(C(F)(F)F)cn2)cc1CCCOc1ccccc1CC(=O)O
Return: 106 to 107 °C

###

endpoint_label: melting point

Enquiry: Data request, read-out melting point, for Cc1cc(-c2cc(C(F)(F)F)n3ncc(C(=O)Nc4cccc(S(=O)(=O)NC(C)(C)CO)c4)c3n2)ccc1C(F)(F)F
Return: 230 °C

###

endpoint_label: melting point

Completed entries (count: 5):
compound: CN(CCCNC(=O)c1ccc(OC(F)(F)F)cc1)CCCNC(=O)c1ccc(OC(F)(F)F)cc1
melting point: 110 to 111 °C

compound: CC(C)(C(=O)O)c1ccsc1
melting point: 78 to 80.5 °C

compound: COc1ccc2c(c1)Sc1nccnc1N2
melting point: 210 to 211 °C

compound: CCOC(=O)c1nc2sc([N+](=O)[O-])c(C)c2c(=O)[nH]1
melting point: 229 to 230 °C

compound: O=C(Oc1ccccc1C(=O)Nc1cc(Cl)c(OC(=O)c2ccccc2)c(Cl)c1)c1ccccc1
melting point: 157 to 160 °C

Enquiry: Data request, read-out melting point, for CC(C)c1nc(C(C)C)c(CN2CCC(N3CCCCC3)CC2)c(-c2ccc(F)cc2)c1CO
Return: 143 to 145 °C

Enquiry: Data request, read-out melting point, for CCOC(=O)C#CC(C)(C)OC(N)=O
Return: 111 to 114 °C

Enquiry: Data request, read-out melting point, for Clc1ccc(-c2onc3c(CBr)cc(Cl)cc23)cc1
Return: 145 to 147 °C

Enquiry: Data request, read-out melting point, for Cc1c(CCl)sc2cc(Br)ccc12
Return: 92 to 93 °C

Enquiry: Data request, read-out melting point, for Cn1nc(-c2ccc3c(c2)CCN(C2CCC2)CC3)ccc1=O
Return: 287 to 288 °C

Enquiry: Data request, read-out melting point, for CC(C)CC(SCC1CCCCC1)c1c(O)cc(-c2ccccc2)oc1=O (configuration not stated)
Return: 146 to 148 °C

Enquiry: Data request, read-out melting point, for CCCCCCCCCCCCCCCC(=O)OC(CCCCCCCCCCCCCCC)CC(=O)NCCC(=O)NC(CCC(=O)O)C(=O)O (configuration not stated)
Return: 100 to 104 °C

Enquiry: Data request, read-out melting point, for O=C(c1cccnc1)N1CC2CCC(C1)O2
Return: 48 to 49.5 °C

Enquiry: Data request, read-out melting point, for COc1cc(C(C)C)c2c(c1)S(=O)(=O)N(COc1cc(C(F)(F)F)nn1C)C2=O
Return: 107 to 108 °C

Enquiry: Data request, read-out melting point, for CC(=O)OCC1Cc2cc(I)ccc2N1 (configuration not stated)
Return: 64 to 66 °C

Enquiry: Data request, read-out melting point, for CSc1c(N)nc(NCCCOC(C)C)nc1Cl
Return: 245 °C

Enquiry: Data request, read-out melting point, for O=C1CC2CCCC(CC(=O)OCc3ccccc3)C2N1 (configuration not stated)
Return: 89 to 90 °C

Enquiry: Data request, read-out melting point, for O=C1NCCC12CCCN2Cc1ccccc1 (configuration not stated)
Return: 152 to 153 °C

Enquiry: Data request, read-out melting point, for Cc1cccc(CN(Cc2cccc(C)n2)C(c2ccccn2)c2ccccn2)n1
Return: 168 °C

Enquiry: Data request, read-out melting point, for CCC1C=C(CCN(O)C(N)=O)c2ccccc21 (configuration not stated)
Return: 81 to 83 °C

Enquiry: Data request, read-out melting point, for CC1CC(C)OP(=O)(Cc2ccc([N+](=O)[O-])cc2)O1 (configuration not stated)
Return: 152 to 153 °C

Enquiry: Data request, read-out melting point, for O=C1CCCc2c1c1cccc3c1n2CCC3
Return: 160 to 164 °C

Enquiry: Data request, read-out melting point, for CONS(=O)(=O)c1ccc(Cl)c(Cl)c1
Return: 146 to 147 °C

Enquiry: Data request, read-out melting point, for CCCc1nc2c(N)nc3ccccc3c2n1CCC(=O)N(C)C
Return: 207 to 209 °C

Enquiry: Data request, read-out melting point, for COc1ccc(C2CC(c3ccccc3)=NN2c2ccc(S(N)(=O)=O)cc2)cc1 (configuration not stated)
Return: 111 °C

Enquiry: Data request, read-out melting point, for CS(=O)(=O)c1ccc(-c2cnn(Cc3ccccc3)c(=S)c2-c2ccc(F)cc2)cc1
Return: 88 to 90 °C

Value source: a melting point compilation (Tetko et al.; mined from patent text by program, amines drawn as free bases though some values may be those of a salt)
